Entries and their IC50 values follow.
# measured-on: recombinant human MAO-B (monoamine oxidase-B) (Homo sapiens)
# Construct: purchased Sigma-Aldrich
# Sequence (P27338 1-520): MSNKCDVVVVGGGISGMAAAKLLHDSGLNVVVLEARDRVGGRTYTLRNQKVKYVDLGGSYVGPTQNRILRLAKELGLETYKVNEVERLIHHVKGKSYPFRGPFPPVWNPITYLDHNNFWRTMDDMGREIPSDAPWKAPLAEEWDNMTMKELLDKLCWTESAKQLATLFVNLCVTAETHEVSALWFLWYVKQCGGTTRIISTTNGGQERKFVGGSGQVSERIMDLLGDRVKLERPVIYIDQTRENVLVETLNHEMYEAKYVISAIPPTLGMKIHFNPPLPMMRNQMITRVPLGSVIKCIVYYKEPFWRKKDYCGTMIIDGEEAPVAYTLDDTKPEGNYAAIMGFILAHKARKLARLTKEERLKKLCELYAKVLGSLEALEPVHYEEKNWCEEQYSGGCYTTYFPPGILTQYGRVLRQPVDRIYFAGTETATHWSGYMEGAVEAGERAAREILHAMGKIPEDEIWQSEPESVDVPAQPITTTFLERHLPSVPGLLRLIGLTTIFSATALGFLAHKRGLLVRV
# protocol-text: Activity evaluation on recombinant human MAO-B (Amplex Red/HRP-coupled assay, 1 mM benzylamine substrate)
# Format: biochemical
# test-context: 1 mM benzylamine, read-out: Inhibitory Activity (IC50, nM) MAO-B
# Method: The compounds according to the present technology were evaluated in terms of activity on recombinant human VAP-1 (R&D systems) by measuring the level of hydrogen peroxide in horseradish peroxidase (HRP)-coupled reaction using Amplex Red Hydrogen Peroxide Assay Kit (Molecular Probes, Invitrogen, USA). […] The inhibitory effect of the compounds was measured as a decrease (%) in the signal rate as compared to the control group without any inhibitor (only diluted DMSO). […]
Counter-ions that a name gives are not always drawn.
reported-endpoint: IC50 (nM)

>>> numeric_readout("Cc1cc(-n2cnn(CC(CN)=C(F)F)c2=O)cnc1-c1ccc(S(C)(=O)=O)cc1 [Example 76, Trifluoroacetate]")
44000
>>> numeric_readout("CCn1cc(-c2cnc(-n3cnn(CC(CN)=C(F)F)c3=O)c(F)c2)cn1 [Example 88, Trifluoroacetate]")
8200
>>> numeric_readout("CN(C)c1ccc(-c2cnc(-n3cnn(CC(CN)=C(F)F)c3=O)cn2)cn1 [Example 92, Trifluoroacetate]")
6200
>>> numeric_readout("COc1ccc(-c2ccc(Cn3cnn(CC(CN)=C(F)F)c3=O)s2)cn1 [Example 113, Trifluoroacetate]")
2700
>>> numeric_readout("NCC(Cn1ncn(Cc2ccc(C#Cc3ccc4c(c3)CCC(=O)N4)s2)c1=O)=C(F)F [Example 165, Trifluoroacetate]")
5900
